Molecular target: Protein deacetylase HDAC6 (Homo sapiens)
Sequence (Q9UBN7 whole entry, the tested form may be a part): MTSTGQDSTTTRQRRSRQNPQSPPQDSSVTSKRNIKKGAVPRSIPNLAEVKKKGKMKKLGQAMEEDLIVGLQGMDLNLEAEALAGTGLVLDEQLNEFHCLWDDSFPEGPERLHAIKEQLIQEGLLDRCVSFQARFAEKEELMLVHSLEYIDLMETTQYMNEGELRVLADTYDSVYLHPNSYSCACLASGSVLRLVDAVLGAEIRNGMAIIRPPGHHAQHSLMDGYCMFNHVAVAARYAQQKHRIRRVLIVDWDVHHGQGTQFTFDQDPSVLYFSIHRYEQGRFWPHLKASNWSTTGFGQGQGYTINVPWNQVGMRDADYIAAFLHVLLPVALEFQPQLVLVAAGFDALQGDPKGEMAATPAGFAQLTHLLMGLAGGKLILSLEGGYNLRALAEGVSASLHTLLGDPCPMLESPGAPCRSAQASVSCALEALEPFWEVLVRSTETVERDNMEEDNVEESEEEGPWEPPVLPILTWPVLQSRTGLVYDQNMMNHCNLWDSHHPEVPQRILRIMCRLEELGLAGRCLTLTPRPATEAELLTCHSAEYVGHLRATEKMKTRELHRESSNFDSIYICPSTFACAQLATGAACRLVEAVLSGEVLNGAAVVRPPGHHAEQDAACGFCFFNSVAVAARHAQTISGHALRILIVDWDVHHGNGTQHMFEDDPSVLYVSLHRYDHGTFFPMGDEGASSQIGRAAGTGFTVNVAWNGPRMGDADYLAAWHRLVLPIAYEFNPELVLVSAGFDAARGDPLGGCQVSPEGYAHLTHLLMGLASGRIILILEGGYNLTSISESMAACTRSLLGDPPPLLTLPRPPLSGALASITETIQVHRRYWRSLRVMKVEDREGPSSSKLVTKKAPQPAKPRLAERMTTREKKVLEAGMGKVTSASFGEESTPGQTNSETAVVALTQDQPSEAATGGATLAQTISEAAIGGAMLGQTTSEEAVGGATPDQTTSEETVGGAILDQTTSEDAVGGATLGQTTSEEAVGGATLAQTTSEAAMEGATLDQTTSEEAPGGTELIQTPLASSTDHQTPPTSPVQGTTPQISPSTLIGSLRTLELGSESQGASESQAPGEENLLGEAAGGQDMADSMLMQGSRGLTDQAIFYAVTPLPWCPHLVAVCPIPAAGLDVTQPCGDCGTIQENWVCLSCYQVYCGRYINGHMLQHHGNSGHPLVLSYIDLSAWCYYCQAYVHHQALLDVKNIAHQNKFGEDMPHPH
Experiment: Inhibition of HDAC6 CD2 domain (unknown origin)
Non-standard residues stand in square brackets, D forms with d. Residues, ends and D or L forms follow the SMILES beside them. *: point of attachment. 3Amb = NCc1cccc(C(=O)O)c1; 4Amb = NCc1ccc(C(=O)O)cc1; Cbz = O=C(OCc1ccccc1)*; NHOH = ON*
# IC50 listing for each entry below
# include the unit after the value

O=C(CNC(=O)CNC(=O)OCc1ccccc1)NCc1ccc(C(=O)NO)cc1 (Cbz-Gly-Gly-[4Amb]-{NHOH}) : 335 nM
CC1(C)[C@@H]2CC[C@@H](CNCc3ccc(C(=O)NO)cc3)[C@H]1C2 : 149 nM

Okay, now this compound:
Task item: Data request, read-out IC50, for CC(C)C[C@H](NC(=O)OCc1ccccc1)C(=O)N[C@@H](C)C(=O)NCc1cccc(C(=O)NO)c1 (Cbz-Leu-Ala-[3Amb]-{NHOH})
Reply: 8420 nM

Data provenance is ChEMBL document CHEMBL4321863.
